Listed next: entries and their corresponding EC50.
system: OCI-Ly3; assay: Antiproliferative activity against human OCILY3 cells by cell proliferation assay; format: functional, cell-based
Only the number, expressed in µM, is required.

Use the examples below as a reference point.
{"compound": "COC(C)c1c(NC(=O)Nc2cnc(-n3nccn3)c(Cl)c2)cnc2ccc(F)cc12 (stereo not given)", "subject_of_test": "OCI-Ly3", "readout_units": "µM", "quantitative_result": 0.27}
{"compound": "O=C(Nc1cnc(-n2nccn2)c(Cl)c1)Nc1cnc2ccc(Cl)cc2c1C1CC1", "subject_of_test": "OCI-Ly3", "readout_units": "µM", "quantitative_result": 0.99}
{"compound": "CC(C)c1c(NC(=O)Nc2cnc(-n3nccn3)c(Cl)c2)cnc2ccccc12", "subject_of_test": "OCI-Ly3", "readout_units": "µM", "quantitative_result": 2.42}

Proceeding to the next compound to report its EC50.
Given "O=C(Nc1cnc(-n2nccn2)c(Cl)c1)Nc1cnc2cc(F)ccc2c1C1CC1" , state its recorded EC50. 0.9

Data origin, for the record: ChEMBL document CHEMBL4665658
